- Target or test system: type II dehydroquinase from Mycobacterium tuberculosis (Mycobacterium tuberculosis, UniProt P9WPX7)
- Sequence (P9WPX7 whole entry): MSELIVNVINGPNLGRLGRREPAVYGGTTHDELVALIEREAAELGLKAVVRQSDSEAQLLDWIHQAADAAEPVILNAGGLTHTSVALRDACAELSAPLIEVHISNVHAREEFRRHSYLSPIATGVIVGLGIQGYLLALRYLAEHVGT
- Protocol summary: biochemical
- Condition: Inhibition constants Ki, M. tuberculosis, pH = 7.0, 25° C., 50 mM Tris•HOAc
Let's look at some molecules and their measured Ki.
Property name: Ki (nM)

[[record]]
molecule = "O=C1C(O)C(O)CC(O)(C(=O)O)C1Cc1c(F)c(F)c(F)c(F)c1F (single isomer, unassigned) [(2R)-Ia-6]"
measurement = 47

[[record]]
molecule = "C=C(C)c1cc2c(s1)[C@@H](O)[C@H](O)C[C@]2(O)C(=O)O"
measurement = 860

[[record]]
molecule = "O=C(O)C1(O)CC(O)C(O)C(OCc2cc3ccccc3s2)=C1Cc1cc2ccccc2s1 (centres unmarked)"
measurement = 4.25

[[record]]
molecule = "C=Cc1cc2c(s1)[C@@H](O)[C@H](O)C[C@]2(O)C(=O)O"
measurement = 52

[[record]]
molecule = "O=C1C(O)C(O)CC(O)(C(=O)O)C1Cc1c(F)c(F)c(F)c(F)c1F (single isomer, unassigned) [(2S)-Ia-6]"
measurement = 74

[[record]]
molecule = "O=C(O)[C@@]1(O)C[C@@H](O)[C@H](O)c2sccc21"
measurement = 3000

[[record]]
molecule = "Cc1ccc(CC2C(=O)C(O)C(O)CC2(O)C(=O)O)cc1 (single isomer, unassigned) [(2S)-Ia-4]"
measurement = 90

[[record]]
molecule = "O=C1C(O)C(O)CC(O)(C(=O)O)C1Cc1ccc2sccc2c1 (single isomer, unassigned) [(2R)-Ia-7]"
measurement = 29

